- SUBJECT OF TEST: Avi-KRAS G12R (1-169) GppNHp/RAF1 RBD-3xFLAG (52-151) (Homo sapiens, UniProt P01116, G12R)
- Construct: Avi-KRAS G12R (1-169)
- Sequence (P01116 1-169 isoform P01116-2 G12R): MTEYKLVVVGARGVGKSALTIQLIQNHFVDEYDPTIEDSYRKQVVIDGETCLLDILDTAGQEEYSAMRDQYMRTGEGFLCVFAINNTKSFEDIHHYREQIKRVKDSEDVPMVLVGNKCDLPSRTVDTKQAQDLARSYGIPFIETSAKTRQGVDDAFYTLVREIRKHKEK
- ASSAY REMARKS: Raf1-KRAS G12R-GppNHP disruption HTRF assay (Biological Example 1)
- Assay type: binding
- STATED CONDITIONS: KRAS G12R-GppNHp/RAF1 RBD HTRF
MEASURED PROPERTY: IC50

- COMPOUND: "CN(c1nc(OC[C@@]23CCCN2C[C@H](F)C3)nc2c(F)c(-c3ccc(F)c4sc(N)c(C#N)c34)c(C(F)(F)F)cc12)[C@@H]1CC(=O)N2CCC[C@H]12"
  IC50: "100 to 1000 nM"

Task: For the compound Cc1cc2n(n1)CCN(c1nc(OCC34CCCN3CC(F)C4)nc3c(F)c(-c4ccc(F)c5sc(N)c(C#N)c45)c(C(F)(F)F)cc13)C2 (stereo not drawn) , what IC50 is on record?
Output: 1000 to 10000 nM

Task: Dear colleague, I am looking for the recorded IC50 of the following compound: "CC(=O)NCCN(C)c1nc(OC[C@@]23CCCN2C[C@H](F)C3)nc2c(F)c(-c3ccc(F)c4sc(N)c(C#N)c34)c(C(F)(F)F)cc12"
Output: 100 to 1000 nM

* * *

- SUBJECT OF TEST: Avi-KRAS G12V (1-169) GppNHp/RAF1 RBD-3xFLAG (52-151) (Homo sapiens, UniProt P01116, G12V)
- Construct: Avi-KRAS G12V (1-169)
- Sequence (P01116 1-169 isoform P01116-2 G12V): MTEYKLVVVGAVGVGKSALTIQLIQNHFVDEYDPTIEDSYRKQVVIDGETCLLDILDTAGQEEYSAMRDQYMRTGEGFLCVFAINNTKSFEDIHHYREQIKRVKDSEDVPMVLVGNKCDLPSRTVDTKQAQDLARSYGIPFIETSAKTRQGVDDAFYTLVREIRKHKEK
- ASSAY REMARKS: Raf1-KRAS G12V-GppNHP disruption HTRF assay (Biological Example 1)
- Assay type: binding
- STATED CONDITIONS: KRAS G12V, GppNHp-loaded; Table 11
Listed here are molecules together with their documented IC50.

- MOLECULE: "N#Cc1c(N)sc2c(F)ccc(-c3c(C(F)(F)F)cc4c(N5CC6(CC6)C5)nc(OC[C@@]56CCCN5C[C@H](F)C6)nc4c3F)c12"
  IC50: "1 to 10 µM"
- MOLECULE: "C[C@]1(O)CCCN(c2nc(OC[C@@]34CCCN3C[C@H](F)C4)nc3c(F)c(-c4ccc(F)c5sc(N)c(C#N)c45)c(C(F)(F)F)cc23)C1"
  IC50: "0.1 to 1 µM"

Let us examine a further case.
Task: # IC50 lookup, item "N#Cc1c(N)sc2c(F)ccc(-c3c(C(F)(F)F)cc4c(N5CCC(F)CC5)nc(OC[C@@]56CCCN5C[C@H](F)C6)nc4c3F)c12"
Output: 0.1 to 1 µM

* * *

Overview of reported IC50 across a group of compounds:
- SUBJECT OF TEST: Avi-KRAS WT (1-169) GppNHp/RAF1 RBD-3xFLAG (52-151) (Homo sapiens)
- Construct: Avi-KRAS WT (1-169)
- Sequence (P01116 1-169 isoform P01116-2): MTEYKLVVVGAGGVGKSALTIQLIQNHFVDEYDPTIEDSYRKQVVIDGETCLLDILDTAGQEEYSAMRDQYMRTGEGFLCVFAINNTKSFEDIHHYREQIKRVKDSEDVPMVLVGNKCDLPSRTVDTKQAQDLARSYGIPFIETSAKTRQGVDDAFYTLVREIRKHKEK
- ASSAY REMARKS: Raf1-KRAS WT-GppNHP disruption HTRF assay (Biological Example 1)
- Format: binding
- STATED CONDITIONS: KRAS WT-GppNHp/RAF1 RBD HTRF

- COMPOUND: "CCN(c1nc(OC[C@@]23CCCN2C[C@H](F)C3)nc2c(F)c(-c3ccc(F)c4sc(N)c(C#N)c34)c(Cl)cc12)[C@@H]1CCN(C(C)=O)[C@@H]1C [Compound 323]"
  MEASURED PROPERTY: "IC50"
  ENDPOINT RESULT: "100 to 1000 nM"
- COMPOUND: "C[C@@H]1[C@H](N(C)c2nc(OC[C@@]34CCCN3C[C@H](F)C4)nc3c(F)c(-c4ccc(F)c5sc(N)c(C#N)c45)c(C(F)(F)F)cc23)CCN1C(=O)C1(C#N)CC1 [Compound 325]"
  MEASURED PROPERTY: "IC50"
  ENDPOINT RESULT: "100 to 1000 nM"

Please look at the following compound next.
Task: # get_value(readout='IC50', item= CCC(=O)N1CC[C@@H](N(C)c2nc(OC[C@@]34CCCN3C[C@H](F)C4)nc3c(F)c(-c4ccc(F)c5sc(N)c(C#N)c45)c(C(F)(F)F)cc23)[C@@H]1C [Compound 299] )
Output: 100 to 1000 nM

* * *

- SUBJECT OF TEST: Avi-KRAS G12C (2-169) GTP/RAF1 RBD-3xFLAG (51-131) (Homo sapiens, UniProt P01116, G12C)
- Construct: Avi-KRAS G12C (2-169)
- Sequence (P01116 2-169 isoform P01116-2 G12C): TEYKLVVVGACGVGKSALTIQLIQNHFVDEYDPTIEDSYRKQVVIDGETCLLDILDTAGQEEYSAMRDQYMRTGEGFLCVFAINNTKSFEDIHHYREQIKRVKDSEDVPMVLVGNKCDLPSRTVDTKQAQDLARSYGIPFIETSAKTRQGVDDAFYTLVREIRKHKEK
- ASSAY REMARKS: Raf1-KRAS G12C-GTP disruption HTRF assay (Biological Example 3)
- Type: binding
- STATED CONDITIONS: KRAS G12C, GTP-loaded
We begin with a simple list: items and their reported IC50.

- COMPOUND: "CCC(=O)N1C[C@H](N(CC)c2nc(OC[C@@]34CCCN3C[C@H](F)C4)nc3c(F)c(-c4ccc(F)c5sc(N)c(C#N)c45)c(C(F)(F)F)cc23)C[C@@H]1C (atropisomer, axis not shown)"
  SUBJECT OF TEST: "Avi-KRAS G12C (2-169) GTP/RAF1 RBD-3xFLAG (51-131) (Homo sapiens, UniProt P01116, G12C)"
  IC50: "100 to 1000 nM"
- COMPOUND: "CCN(c1nc(OC[C@@]23CCCN2C[C@H](F)C3)nc2c(F)c(-c3ccc(F)c4sc(N)c(C#N)c34)c(C(F)(F)F)cc12)[C@H]1CCN(C(=O)c2coc(C)n2)C1 (atropisomer, axis not shown)"
  SUBJECT OF TEST: "Avi-KRAS G12C (2-169) GTP/RAF1 RBD-3xFLAG (51-131) (Homo sapiens, UniProt P01116, G12C)"
  IC50: "≤ 100 nM"
- COMPOUND: "CCN(c1nc(OC[C@@]23CCCN2C[C@H](F)C3)nc2c(F)c(-c3ccc(F)c4sc(N)c(C#N)c34)c(C(F)(F)F)cc12)[C@@H]1CCN2C(=O)OC[C@H]12 (atropisomer, axis not shown)"
  SUBJECT OF TEST: "Avi-KRAS G12C (2-169) GTP/RAF1 RBD-3xFLAG (51-131) (Homo sapiens, UniProt P01116, G12C)"
  IC50: "1000 to 10000 nM"
- COMPOUND: "CCN(c1nc(OC[C@@]23CCCN2C[C@H](F)C3)nc2c(F)c(-c3ccc(F)c4sc(N)c(C#N)c34)c(C(F)(F)F)cc12)[C@H]1CCN(C(=O)c2cnc(Cl)s2)C1 (atropisomer, axis not shown)"
  SUBJECT OF TEST: "Avi-KRAS G12C (2-169) GTP/RAF1 RBD-3xFLAG (51-131) (Homo sapiens, UniProt P01116, G12C)"
  IC50: "100 to 1000 nM"
- COMPOUND: "CCN(c1nc(OC[C@@]23CCCN2C[C@H](F)C3)nc2c(F)c(-c3ccc(F)c4sc(N)c(C#N)c34)c(C(F)(F)F)cc12)[C@H]1CCN(C(=O)O[C@@H]2CCOC2)[C@@H]1C (atropisomer, axis not shown)"
  SUBJECT OF TEST: "Avi-KRAS G12C (2-169) GTP/RAF1 RBD-3xFLAG (51-131) (Homo sapiens, UniProt P01116, G12C)"
  IC50: "100 to 1000 nM"
- COMPOUND: "N#Cc1c(N)sc2c(F)ccc(-c3c(C(F)(F)F)cc4c(N(CCF)[C@H]5CCN(C(=O)[C@@H]6CC6(F)F)C5)nc(OC[C@@]56CCCN5C[C@H](F)C6)nc4c3F)c12 (atropisomer, axis not shown)"
  SUBJECT OF TEST: "Avi-KRAS G12C (2-169) GTP/RAF1 RBD-3xFLAG (51-131) (Homo sapiens, UniProt P01116, G12C)"
  IC50: "100 to 1000 nM"

Task: # query: IC50 of entry CN(c1nc(OCC23CCCN2CC(F)C3)nc2c(F)c(-c3ccc(F)c4sc(N)c(C#N)c34)c(C(F)(F)F)cc12)C1CCc2ccncc21 (stereo not drawn) [Compound 961]
Output: > 10000 nM

Task: I would be grateful if you could share the reported IC50 for CCN(c1nc(OC[C@@]23CCCN2C[C@H](F)C3)nc2c(F)c(-c3ccc(F)c4sc(N)c(C#N)c34)c(C(F)(F)F)cc12)[C@H]1CC[C@@](C)(C(=O)N(C)C)C1 (atropisomer, axis not shown) .
Output: 1000 to 10000 nM

Task: What value of IC50 has been reported for the following compound? CCN(c1nc(OC[C@@]23CCCN2C[C@H](F)C3)nc2c(F)c(-c3ccc(F)c4sc(N)c(C#N)c34)c(C(F)(F)F)cc12)[C@H]1C[C@H](C)N(C(=O)OC2COC2)C1 (atropisomer, axis not shown)
Output: 100 to 1000 nM
